Origin of measurements: ChEMBL document CHEMBL3414552

# maps each entry to its inhibition at 100 µM
Test system: HeLa
Experiment: Cytotoxicity against human HeLa cells at 100 uM after 72 hrs by MTS assay
Assay type: functional
Observation type: inhibition at 100 µM

> print(dat)
                    structure.smiles.string  tested.target  result
1  Nc1nc2ncc(CNc3ccc(C(=O)N[C@@H](CCC(=O)NCCCCCCC(=O)NO)C(=O)O)cc3)nc2c(=O)[nH]1           HeLa   < 20%
2  Nc1nc2ncc(CNc3ccc(C(=O)NCCCCCC(=O)NO)cc3)nc2c(=O)[nH]1           HeLa   < 20%
3  Nc1nc2ncc(CNc3ccc(C(=O)NCCCCC(=O)NO)cc3)nc2c(=O)[nH]1           HeLa   < 20%
4  Nc1nc2ncc(CNc3ccc(C(=O)NCCCCCCCCCC(=O)NO)cc3)nc2c(=O)[nH]1           HeLa     36%
5  Nc1nc2ncc(CNc3ccc(C(=O)NCCCC(=O)NO)cc3)nc2c(=O)[nH]1           HeLa   < 20%
6  Nc1nc2ncc(CNc3ccc(C(=O)NCCCCCCC(=O)NO)cc3)nc2c(=O)[nH]1           HeLa     34%
7  Nc1nc2ncc(CNc3ccc(C(=O)N[C@@H](CCC(=O)NCCCCCCCC(=O)NO)C(=O)O)cc3)nc2c(=O)[nH]1           HeLa   < 20%
8  Nc1nc2ncc(CNc3ccc(C(=O)NCCCCCCCCC(=O)NO)cc3)nc2c(=O)[nH]1           HeLa     35%
